Values from patent US12077503B2

Tested on: corn (Zea mays)
protocol_text: Test A postemergence
Format: in vivo
experimental_parameters: Postemergence, 500 g ai/ha; 0 to 100 scale where 0 is no effect and 100 is complete control
From the text: […]
observation_type: Plant response rating, Corn

Completed entries (count: 10):
Query: Checklist item: Plant response rating, Corn tested on corn (Zea mays), entry O=C1NCC(c2cc(C(F)(F)F)cc(C(F)(F)F)c2)C1C(=O)Nc1ccccc1F (stereo not drawn) , value?
Reply: 70

Query: Checklist item: Plant response rating, Corn tested on corn (Zea mays), entry CN1CC(c2ccc(OC(F)F)cc2)C(C(=O)Nc2cccc(F)c2F)C1=O (stereo not drawn) , value?
Reply: 80

Query: Checklist item: Plant response rating, Corn tested on corn (Zea mays), entry COc1ccc(N2CC(c3cccc(C(F)(F)F)c3)C(C(=O)Nc3ccccc3F)C2=O)cc1 (stereo not drawn) , value?
Reply: 0

Query: Checklist item: Plant response rating, Corn tested on corn (Zea mays), entry O=C1NCC(c2ccsc2Br)C1C(=O)Nc1cccc(F)c1F (stereo not drawn) , value?
Reply: 0

Query: Checklist item: Plant response rating, Corn tested on corn (Zea mays), entry O=C1NCC(c2ccnc(C(F)(F)F)c2)C1C(=O)Nc1ccccc1F (racemic) , value?
Reply: 60

Query: Checklist item: Plant response rating, Corn tested on corn (Zea mays), entry Cc1ccc(C2CN(C)C(=O)C2C(=O)Nc2ccc(F)cc2F)c(F)c1 (stereo not drawn) , value?
Reply: 30

Query: Checklist item: Plant response rating, Corn tested on corn (Zea mays), entry CN1CC(c2cccc(C(F)(F)F)c2)C(C(=O)Nc2cccc(C#N)c2F)C1=O (stereo not drawn) , value?
Reply: 80

Query: Checklist item: Plant response rating, Corn tested on corn (Zea mays), entry O=C1NCC(c2ccc(F)cc2F)C1C(=O)Nc1ccc(F)cc1F (racemic) , value?
Reply: 0

Query: Checklist item: Plant response rating, Corn tested on corn (Zea mays), entry CCc1cccc(C2CN(C)C(=O)C2C(=O)Nc2cccc(F)c2F)c1 (stereo not drawn) , value?
Reply: 90

Query: Checklist item: Plant response rating, Corn tested on corn (Zea mays), entry O=C1NCC(c2cc(Cl)sc2Cl)C1C(=O)Nc1cccc(F)c1F (stereo not drawn) , value?
Reply: 20

Could you tell me Plant response rating, Corn for each of these molecules? They are listed below.
1. COc1c(F)ccc(NC(=O)C2C(=O)NCC2c2cccc(OC(F)(F)C(F)F)c2)c1F (racemic)
2. O=C1NCC(c2ccsc2Cl)C1C(=O)Nc1ccccc1F (stereo not drawn)

Reply:
1: 60; 2: 0
